Source of measurements: patent US20240336583A1

Assay Details: Mouse LD50 test (sequential method, tail vein bolus)
Format: in vivo
Condition Context: mouse, in vivo, intravenous; ICR mice, tail vein bolus within 10 seconds, sequential method, AOT425 software; read-out: LD50 (median lethal dose: dose required to cause 50% of the mice to die)
Method: The ED50 value and LD50 value of the compound of the present invention were measured using a sequential method. The TI (therapeutic index) of the drug was calculated. The animal symptoms in the experimental process were observed, and the drug effect, safety and side effects of the compound of the present invention were examined. SPF grade ICR mice (Pizhou Oriental Breeding Co., Ltd.), 22-28 g, 15 mice/group. […]
Catalogue of LD50 readings, one per entry.

[
  {
    "Compound": "CC(C)c1cccc(C(C)C)c1O [Propofol, reference compound]",
    "Units": "mg/kg",
    "LD50": 55.9
  },
  {
    "Compound": "CC1COc2c(F)cc(C(C)C3CC3)c(O)c21 (single isomer, unassigned)",
    "Units": "mg/kg",
    "LD50": 62.5
  }
]
